# test.description: Agilent ZORBAX 300 SB-C18, 150 × 1 mm, 3.5 µm; A: water + 0.01% heptafluorobutyric acid; B: acetonitrile + 0.01% heptafluorobutyric acid; gradient (min/%B) 0/0 100/90
# experimental.parameters: stereoisomer not certain
observed.property: LC retention time (min)
Write the value in min as a bare number.

The cases that follow already have their LC retention time on record.
{"columns": ["molecule", "readout.units", "numeric.value"],
 "data": [
  ["CC(=O)Nc1ccccn1", "min", 6.5],
  ["CCN(CC)CCCC(C)N (stereo not drawn)", "min", 7.05]
]}

Okay, now this molecule:
Query :: Dear colleague, I am looking for the recorded LC retention time of the following molecule: `O=C1c2ccccc2CN1CCNC(=S)NC1CCCCC1`
Result :: 12

###

# test.description: Agilent ZORBAX 300 SB-C18, 150 × 1 mm, 3.5 µm; A: water + 0.01% heptafluorobutyric acid; B: acetonitrile + 0.01% heptafluorobutyric acid; gradient (min/%B) 0/0 100/90
# experimental.parameters: stereoisomer not certain
Recorded measurements of LC retention time, one per entry
Write the value in min as a bare number.

Query :: Dear colleague, I am looking for the recorded LC retention time of the following compound: `Cc1cc(C)c2c(=O)n(CC(=O)NCCC(C)C)c(=O)n(-c3ccccc3)c2n1`
Result :: 14.4

Query :: Dear colleague, I am looking for the recorded LC retention time of the following compound: O=C1CC(N2CCN(C(c3ccccc3)c3ccccc3)CC2)C(=O)N1c1ccccc1 (stereo unspecified)
Result :: 11.2

Query :: Dear colleague, I am looking for the recorded LC retention time of the following compound: `Cc1cnc2c(ccc3c(C)c(C)cnc32)c1C`
Result :: 9.85

Query :: Dear colleague, I am looking for the recorded LC retention time of the following compound: `C[N+](C)(C)CCOC(=O)c1ccccc1`
Result :: 8.36

Query :: Dear colleague, I am looking for the recorded LC retention time of the following compound: `COc1ccc(C(=O)C=Cc2ccc(OC)c(COc3cccc(C)c3C)c2)cc1`
Result :: 19.9

Query :: Dear colleague, I am looking for the recorded LC retention time of the following compound: NC(Cc1ccccc1)C(=O)Nc1ccc2ccccc2c1 (stereo unspecified)
Result :: 10.4

Query :: Dear colleague, I am looking for the recorded LC retention time of the following compound: NC1c2ccccc2CC1O (stereo unspecified)
Result :: 7.28

Query :: Dear colleague, I am looking for the recorded LC retention time of the following compound: `COCc1cc(=O)n2[nH]c(NC(C)=O)nc2n1`
Result :: 6.11

Query :: Dear colleague, I am looking for the recorded LC retention time of the following compound: `CC(=O)NC(NC(C)=O)NC(C)=O`
Result :: 1.91

Query :: Dear colleague, I am looking for the recorded LC retention time of the following compound: `O=C(O)c1cc(N2CCCC2=O)cc(N2CCCC2=O)c1`
Result :: 8.34

Query :: Dear colleague, I am looking for the recorded LC retention time of the following compound: `CCCCCCCCCC(=O)NCCCCC(=O)O`
Result :: 13.5

###

# test.description: Agilent ZORBAX 300 SB-C18, 150 × 1 mm, 3.5 µm; A: water + 0.01% heptafluorobutyric acid; B: acetonitrile + 0.01% heptafluorobutyric acid; gradient (min/%B) 0/0 100/90
# experimental.parameters: stereoisomer not certain
Recorded measurements of LC retention time, one per entry

The cases that follow already have their LC retention time on record.
{"columns": ["compound", "LC retention time"],
 "data": [
  ["Cc1ccc(N2CC(C(=O)O)CC2=O)cc1C (stereo not given)", "10.2 min"],
  ["CCOC(=O)c1[nH]c(C)cc1C", "12.5 min"],
  ["Cc1ccc(C(=O)Nc2ccccc2C(=O)N2CCN(C)CC2)cc1", "8.88 min"],
  ["C=C(C)CC1C=CCC(CC(=C)C)N1 (stereo not given)", "9.63 min"],
  ["CC(C)=CCN1CC2(C)c3cc(O)ccc3CC1C2C (stereo not given)", "10.3 min"]
]}

Query :: Dear colleague, I am looking for the recorded LC retention time of the following compound: `Cc1ccc2[nH]c(=O)c(C=NC(CO)(CO)CO)c(O)c2c1`
Result :: 7.75 min

Query :: Dear colleague, I am looking for the recorded LC retention time of the following compound: Cc1cc(C)c2c(=O)n(CC(=O)NC(C)CCc3ccccc3)c(=O)n(C)c2n1 (stereo not given)
Result :: 14.9 min

Query :: Dear colleague, I am looking for the recorded LC retention time of the following compound: `NCCCCCCO`
Result :: 6.25 min

Query :: Dear colleague, I am looking for the recorded LC retention time of the following compound: `Cn1c(=S)[nH]c2ccccc21`
Result :: 9.31 min

Query :: Dear colleague, I am looking for the recorded LC retention time of the following compound: O=C1C=C(O)C(=O)C1c1ccccc1 (stereo not given)
Result :: 9.39 min
